Reference source: ChEMBL document CHEMBL1152596

Let's go through some pKi measurements on UniProtKB P23975 together.
Sequence (P23975 whole entry): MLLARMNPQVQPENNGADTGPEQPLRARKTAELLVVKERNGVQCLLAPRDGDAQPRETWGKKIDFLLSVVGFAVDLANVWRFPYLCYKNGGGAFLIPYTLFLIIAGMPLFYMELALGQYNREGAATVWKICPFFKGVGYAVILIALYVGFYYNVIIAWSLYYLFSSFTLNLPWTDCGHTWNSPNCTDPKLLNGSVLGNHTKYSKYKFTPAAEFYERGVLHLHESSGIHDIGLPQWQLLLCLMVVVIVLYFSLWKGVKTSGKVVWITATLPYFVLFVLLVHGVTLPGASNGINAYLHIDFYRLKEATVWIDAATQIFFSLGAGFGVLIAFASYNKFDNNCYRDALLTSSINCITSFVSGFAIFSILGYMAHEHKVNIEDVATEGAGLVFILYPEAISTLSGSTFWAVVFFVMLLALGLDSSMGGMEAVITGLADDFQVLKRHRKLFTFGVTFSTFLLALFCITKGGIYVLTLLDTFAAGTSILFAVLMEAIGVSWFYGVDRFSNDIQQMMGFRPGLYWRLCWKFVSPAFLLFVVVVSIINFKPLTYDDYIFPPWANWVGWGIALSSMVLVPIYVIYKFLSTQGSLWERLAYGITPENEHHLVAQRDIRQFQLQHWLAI
pKi: −log10 of the molar value.
quantity name: pKi

> print(dat)
                                   compound     tested.system  measurement
1  COc1ccc(C2=NN(CCCCCNCC[C@@H](Oc3cccc4ccccc34)c3cccs3)C(=O)[C@@H]3CC=CC[C@H]23)cc1OC  UniProtKB P23975         5.49

A = NCC[C@H](Oc1cccc2ccccc12)c1cccs1 [(S)-NORDULOXETINE]
B = NCC[C@@H](Oc1cccc2ccccc12)c1cccs1 [R-NORDULOXETINE]
Q: Lower pKi: A or B ? Write down the label of the entry you select.
Result: A
